SYSTEM: Beta-3 adrenergic receptor (Homo sapiens)
Sequence (P13945 whole entry): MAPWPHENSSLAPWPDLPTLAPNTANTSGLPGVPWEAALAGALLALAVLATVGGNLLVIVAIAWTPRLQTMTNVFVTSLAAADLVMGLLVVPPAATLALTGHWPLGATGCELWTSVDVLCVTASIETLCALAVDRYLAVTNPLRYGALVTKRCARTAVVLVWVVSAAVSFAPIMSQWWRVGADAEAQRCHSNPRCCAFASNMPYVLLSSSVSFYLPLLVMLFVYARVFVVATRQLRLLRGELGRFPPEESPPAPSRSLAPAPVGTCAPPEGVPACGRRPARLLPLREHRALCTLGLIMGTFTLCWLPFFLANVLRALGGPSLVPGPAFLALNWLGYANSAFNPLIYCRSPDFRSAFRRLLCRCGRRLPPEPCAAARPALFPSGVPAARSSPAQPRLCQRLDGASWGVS
ASSAY_DETAILS: Displacement of [3H]-CGP 12177 from human beta-3 adrenergic receptor expressed in CHOK1 cells
Type: cell-based, CHO-K1
Label key: T means Kd under 80 nM; F means Kd of 80 nM or more.

// known answers, use as guide
compound="C=CCc1ccccc1OCC(O)CNCCNC(=O)CCCCCNC(=O)COc1ccc(/C=C/c2ccc3n2[B-](F)(F)[N+]2=C(c4cccs4)C=CC2=C3)cc1 (racemic)" category_label=T
compound="O=C(CCCCCNC(=O)COc1ccc(/C=C/c2ccc3n2[B-](F)(F)[N+]2=C(c4cccs4)C=CC2=C3)cc1)NCCOCCOCCNCC(O)COc1cccc2[nH]ccc12 (racemic)" category_label=F
compound=O=C(CCCCCNC(=O)COc1ccc(/C=C/c2ccc3n2[B-](F)(F)[N+]2=C(c4cccs4)C=CC2=C3)cc1)NCCCCCCCCNC[C@H](O)COc1cccc2ccccc12 category_label=T
compound=O=C(CCCCCNC(=O)COc1ccc(/C=C/c2ccc3n2[B-](F)(F)[N+]2=C(c4cccs4)C=CC2=C3)cc1)NCCCCNC[C@H](O)COc1cccc2ccccc12 category_label=F
compound="O=C(CCCCCNC(=O)COc1ccc(/C=C/c2ccc3n2[B-](F)(F)[N+]2=C(c4cccs4)C=CC2=C3)cc1)NCCNCC(O)COc1cccc2ccccc12 (racemic)" category_label=F
compound="O=C(CCCCCNC(=O)COc1ccc(/C=C/c2ccc3n2[B-](F)(F)[N+]2=C(c4cccs4)C=CC2=C3)cc1)NCCCCNCC(O)COc1cccc2ccccc12 (racemic)" category_label=F

Is 80 nM strictly greater than the compound's reported Kd? compound: C=CCc1ccccc1OC[C@@H](O)CNCCNC(=O)CCCCCNC(=O)COc1ccc(/C=C/c2ccc3n2[B-](F)(F)[N+]2=C(c4cccs4)C=CC2=C3)cc1
T

Is 80 nM strictly greater than the compound's reported Kd? compound: C=CCc1ccccc1OC[C@@H](O)CNCCOCCOCCNC(=O)CCCCCNC(=O)COc1ccc(/C=C/c2ccc3n2[B-](F)(F)[N+]2=C(c4cccs4)C=CC2=C3)cc1
F

Is 80 nM strictly greater than the compound's reported Kd? compound: O=C(CCCCCNC(=O)COc1ccc(/C=C/c2ccc3n2[B-](F)(F)[N+]2=C(c4cccs4)C=CC2=C3)cc1)NCCCCCCCCNCC(O)COc1cccc2ccccc12 (racemic)
T
